test system: SF-268 CNS; test: NCI tumour cell line growth inhibition, 48 h; in the data active means GI50 below about 0.43 µM; inactive means the rest
Labels: active, inactive

[[record]]
compound = "CCN(Cc1cc(Nc2nc(C)cn3c(-c4cn[nH]c4)cnc23)sn1)C(C)(C)CO"
class_name = "active"

[[record]]
compound = "C/C=C(\\C)C(=O)NC1=CC[C@@]2(C)C(=CCC3C2CC[C@@]2(C)C3CC[C@@H]2C(C)N(C)C)C1=O (stereo not given in full)"
class_name = "inactive"

[[record]]
compound = "O=C1C(Cl)=C(Nc2cccc(F)c2)C(=O)N1Cc1ccc(Cl)cc1"
class_name = "inactive"

[[record]]
compound = "COc1ncnc2c(-c3ccccc3)cn(COCc3ccccc3)c12"
class_name = "inactive"

[[record]]
compound = "C=C(CN1C(=O)CN(C)C1=O)c1ccc(C(=O)Nc2ccccc2N)cc1"
class_name = "inactive"

[[record]]
compound = "O=c1[nH]nnc2c1ncn2C1OC(CO)C(O)C1O (stereo not given)"
class_name = "inactive"

[[record]]
compound = "N.N.N.N.[Co+3].[N-]=[N+]=[N-].[N-]=[N+]=[N-].[N-]=[N+]=[N-]"
class_name = "inactive"

[[record]]
compound = "COc1ccc2[nH]cc(-c3ccc(-c4c[nH]c5ccc(OC)cc45)s3)c2c1"
class_name = "inactive"

[[record]]
compound = "C[C@]12C[C@H](CCCCCCNCCOC(=O)NCCCc3ccc(N(CCCl)CCCl)cc3)C3=C4CCC(=O)C=C4CCC3C1CC[C@@H]2O (stereo not given in full)"
class_name = "inactive"

[[record]]
compound = "CN1CCC2(CC1)ONC1=NCCN12"
class_name = "inactive"

